Test system: K12877-001-R-J1-PDC complex spheroid viability;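 further: tumour cells co-cultured with HUVEC and mesenchymal stem cells in spheroids; spheroids exposed to agents for one week before readout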
Test Protocol: Anticancer human tumor K12877-001-R-J1-PDC patient-derived lung adenocarcinoma cell line growth inhibition [RAS]; active means viability on the fitted dose curve at most 10% of control; inactive means the rest
Run Parameters: second compound 0.00949 µM; first compound 1 µM
# valid calls are 1 (active), -1 (inactive); nothing else

Check out these entries, answers already filled in.
Compound	Label Class
NC1c2ccccc2OC12CCN(c1cnc3c(N4CCCc5ncccc54)n[nH]c3n1)CC2 (centres undefined) + CCn1c(-c2cccnc2C(C)OC)c2c3cc(ccc31)N1CCOC(CC(NC(=O)C(C(C)C)N(C)C(=O)C3(F)CCN(C(=O)C#CC(C)(C)N(C)C)CC3)C(=O)N3CCCC(N3)C(=O)OCC(C)(C)C2)C1	-1
CC(=O)OC12COC1CC(O)C1(C)C(=O)C(O)C3=C(C)C(OC(=O)C(O)C(NC(=O)OC(C)(C)C)c4ccccc4)CC(O)(C(OC(=O)c4ccccc4)C21)C3(C)C (centres undefined) + CCn1c(-c2cc(N3CCN(C)CC3)cnc2C(C)OC)c2c3cc(ccc31)-c1csc(n1)CC(NC(=O)C1CC1C)C(=O)N1CCCC(N1)C(=O)OCC(C)(C)C2	1
CC(C)NCC(C(=O)N1CCN(c2ncnc3c2C(C)CC3O)CC1)c1ccc(Cl)cc1 (centres undefined) + CCn1c(-c2cc(N3CCN(C)CC3)cnc2C(C)OC)c2c3cc(ccc31)-c1csc(n1)CC(NC(=O)C1CC1C)C(=O)N1CCCC(N1)C(=O)OCC(C)(C)C2	-1

Moving on to the next compound.
Prompt line: Could you kindly confirm the outcome this assay logged for CCC(CC)c1cc(NC2CCC(N)C2)n2nccc2n1 (centres undefined) + CCn1c(-c2cccnc2C(C)OC)c2c3cc(ccc31)N1CCOC(CC(NC(=O)C(C(C)C)N(C)C(=O)C3(F)CCN(C(=O)C#CC(C)(C)N(C)C)CC3)C(=O)N3CCCC(N3)C(=O)OCC(C)(C)C2)C1 ?
Response line: -1
